system: normal NK cells expanded with K562-aAPC; experiment: percent inhibition of viability; higher = more inhibition; details: 72 h; IL-2 2.5 ng/mL; 1 nM
measureName: percent inhibition of viability (%)
The reply should contain only the number, in %.

Consider the following illustrative entries.
>>> endpointvalue("Nc1nc(N)c2nc(-c3cccc(O)c3)c(-c3cccc(O)c3)nc2n1 [TG100-115] (max concentration tested 10000 nM)")
-2.77
>>> endpointvalue("Nc1ncn([C@H]2C[C@H](O)[C@@H](CO)O2)c(=O)n1 [Decitabine] (max concentration tested 10000 nM)")
3.63
>>> endpointvalue("CC(C)[C@H]1C(=O)N[C@@H](CCCNC(=N)N)C(=O)NCC(=O)N[C@@H](CC(=O)O)C(=O)N[C@H](Cc2ccccc2)C(=O)N1C [Cilengitide] (max concentration tested 10000 nM)")
-8.83
>>> endpointvalue("C=CCc1cccc(/C=N/NC(=O)CN2CCN(Cc3ccccc3)CC2)c1O [PAC-1] (max concentration tested 10000 nM)")
-3.35
>>> endpointvalue("C[C@@H](Oc1cc(-n2cnc3ccc(CN4CCN(C)CC4)cc32)sc1C(N)=O)c1ccccc1C(F)(F)F (max concentration tested 10000 nM)")
-4.93

stdin: For the molecule Cc1ccc(F)c(NC(=O)Nc2ccc(-c3cccc4[nH]nc(N)c34)cc2)c1 [Linifanib] (max concentration tested 1000 nM) , what percent inhibition of viability is on record?
stdout: -1.69

stdin: For the molecule CCCCc1nc2cc(/C=C/C(=O)NO)ccc2n1CCN(CC)CC [Pracinostat] (max concentration tested 10000 nM) , what percent inhibition of viability is on record?
stdout: 1.37

stdin: For the molecule COc1cc(OC2CCN(C)CC2)ccc1Nc1ncc2c(n1)n(C1CCCC1)c(=O)n2C [AZ 3146] (max concentration tested 10000 nM) , what percent inhibition of viability is on record?
stdout: -2.2
